assay.target: human AWAT1 (DGA2) (Homo sapiens)
Construct: The full length DGA2 was sub cloned into the EcoRI and NotI sites of the pRS423-GP vector; made in house; host or cells: Saccharomyces cerevisiae SCY2056 (dga1Δ lro1Δ are2), galactose-inducible pRS423-GP vector; microsomes used
protocol.description: In vitro AWAT substrate specificity assay, AWAT1 microsomes
Type: biochemical
run.conditions: 20 μg microsomes; [14C]oleoyl-CoA as acyl donor; wax ester formed; vector control removed; mean +/- Std. dev., triplicate
# Activity of AWAT1 (DGA2) towards various wax alcohols per entry

Previously resolved entries follow.
CCCCCCCCCCCCCCCCCCCCO [Arachidyl C-20, arachidyl alcohol] = 22 +/− 4 pmol/min/mg protein
CCCCCCCCCCCCCCCCO [Cetyl (Palmityl) C-16, cetyl alcohol] = 83 +/− 6 pmol/min/mg protein

*Q* Under human AWAT1 (DGA2) (Homo sapiens), report Activity of AWAT1 (DGA2) towards various wax alcohols for CCCCCC/C=C\CCCCCCCCO [Palmitoleyl C-16:1]
*A* 184 +/− 29 pmol/min/mg protein

*Q* Under human AWAT1 (DGA2) (Homo sapiens), report Activity of AWAT1 (DGA2) towards various wax alcohols for CCCCCCCCCCCCCCCCCCO [Stearyl C-18]
*A* 27 +/− 5 pmol/min/mg protein

*Q* Under human AWAT1 (DGA2) (Homo sapiens), report Activity of AWAT1 (DGA2) towards various wax alcohols for CCCCCCCCCCO [Decyl C-10, decyl alcohol]
*A* 419 +/− 180 pmol/min/mg protein

*Q* Under human AWAT1 (DGA2) (Homo sapiens), report Activity of AWAT1 (DGA2) towards various wax alcohols for CCCCCCCC/C=C\CCCCCCCCO [Oleyl C-18:1]
*A* 247 +/− 23 pmol/min/mg protein

====

# Activity of AWAT1 (DGA2) towards various acyl-CoAs per entry
assay.target: human AWAT1 (DGA2) (Homo sapiens, UniProt Q58HT5)
Construct: The full length DGA2 was sub cloned into the EcoRI and NotI sites of the pRS423-GP vector; made in house; host or cells: Saccharomyces cerevisiae SCY2056 (dga1Δ lro1Δ are2), galactose-inducible pRS423-GP vector; microsomes used
Sequence (Q58HT5 whole entry): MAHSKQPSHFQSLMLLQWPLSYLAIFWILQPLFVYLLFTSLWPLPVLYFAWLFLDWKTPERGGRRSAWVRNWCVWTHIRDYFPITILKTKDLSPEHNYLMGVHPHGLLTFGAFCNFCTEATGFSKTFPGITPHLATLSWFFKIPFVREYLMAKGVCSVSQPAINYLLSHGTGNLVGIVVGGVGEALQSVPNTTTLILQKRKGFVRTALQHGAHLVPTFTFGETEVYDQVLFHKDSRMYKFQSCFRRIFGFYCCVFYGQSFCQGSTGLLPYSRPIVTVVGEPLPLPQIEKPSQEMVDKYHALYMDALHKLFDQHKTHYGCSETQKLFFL
protocol.description: In vitro AWAT substrate specificity assay, AWAT1 microsomes
Format: biochemical
run.conditions: 20 μg microsomes; [14C]cetyl alcohol as acyl acceptor; wax ester formed; vector control removed; mean +/- Std. dev., triplicate

CCCCCCCCCCCCCCCC(=O)SCCNC(=O)CCNC(=O)[C@H](O)C(C)(C)COP(=O)(O)OP(=O)(O)OC[C@H]1O[C@@H](n2cnc3c(N)ncnc32)[C@H](O)[C@@H]1OP(=O)(O)O = 390 +/− 121 pmol/min/mg protein
CCCCCC/C=C\CCCCCCCC(=O)SCCNC(=O)CCNC(=O)[C@H](O)C(C)(C)COP(=O)(O)OP(=O)(O)OC[C@H]1O[C@@H](n2cnc3c(N)ncnc32)[C@H](O)[C@@H]1OP(=O)(O)O = −20 +/− 25 pmol/min/mg protein
CCCCCCCCCCCCCCCCCC(=O)SCCNC(=O)CCNC(=O)[C@H](O)C(C)(C)COP(=O)(O)OP(=O)(O)OC[C@H]1O[C@@H](n2cnc3c(N)ncnc32)[C@H](O)[C@@H]1OP(=O)(O)O = 656 +/− 39 pmol/min/mg protein

// next entry
*Q* Please indicate Activity of AWAT1 (DGA2) towards various acyl-CoAs recorded for CCCCCCCC/C=C\CCCCCCCC(=O)SCCNC(=O)CCNC(=O)[C@H](O)C(C)(C)COP(=O)(O)OP(=O)(O)OC[C@H]1O[C@@H](n2cnc3c(N)ncnc32)[C@H](O)[C@@H]1OP(=O)(O)O
*A* 113 +/− 7 pmol/min/mg protein

Data origin: patent US20060100146A1
